Origin of the recorded values: BigSolDB 2.1

# Measurement conditions: in n-propyl acetate, 288.15 K
Observed property: solubility (mole fraction)
Hey, just send me the number, nothing else.

Output solubility (mole fraction) of CCCSc1ccc2nc(NC(=O)OC)[nH]c2c1
0.000598

---

# Measurement conditions: in ethyl acetate, 303.15 K
Observed property: solubility (mole fraction)
Please give the numeric answer without any surrounding text.

Give a short answer stating reported solubility (mole fraction) for CCCSc1ccc2nc(NC(=O)OC)[nH]c2c1 .
0.00103

---

# Measurement conditions: in isopropanol, 283.15 K
Observed property: solubility (mole fraction)
Give the figure only, with no unit attached.

Please give measured solubility (mole fraction) of the following entry: CCCSc1ccc2nc(NC(=O)OC)[nH]c2c1
0.000128

---

# Measurement conditions: in acetone, 298.15 K
Observed property: solubility (mole fraction)

Report measured solubility (mole fraction); entry is CCCSc1ccc2nc(NC(=O)OC)[nH]c2c1
0.00302

---

# Measurement conditions: in isobutyl acetate, 318.15 K
Observed property: solubility (mole fraction)
No unit in the answer, please; the number alone is enough.

Retrieve solubility (mole fraction) measured for CCCSc1ccc2nc(NC(=O)OC)[nH]c2c1 and print it.
0.00109

---

# Measurement conditions: in n-propanol, 288.15 K
Observed property: solubility (mole fraction)

Tell me solubility (mole fraction) reported for CCCSc1ccc2nc(NC(=O)OC)[nH]c2c1
0.00023

---

# Measurement conditions: in n-butyl acetate, 283.15 K
Observed property: solubility (mole fraction)
Form field (numeric): enter value without unit.

Find the measured solubility (mole fraction) of CCCSc1ccc2nc(NC(=O)OC)[nH]c2c1 and report it.
0.000609

---

# Measurement conditions: in methanol, 283.15 K
Observed property: solubility (mole fraction)
Reply with just the number.

Output measured solubility (mole fraction) for this item: CCCSc1ccc2nc(NC(=O)OC)[nH]c2c1
0.000114

---

# Measurement conditions: in n-butanol, 283.15 K
Observed property: solubility (mole fraction)

For the molecule CCCSc1ccc2nc(NC(=O)OC)[nH]c2c1 , give its measured solubility (mole fraction) value.
0.000254

---

# Measurement conditions: in acetone, 288.15 K
Observed property: solubility (mole fraction)
// response body must contain only the number

Complete the entry with solubility (mole fraction) for CCCSc1ccc2nc(NC(=O)OC)[nH]c2c1
0.00204

---

# Measurement conditions: in isobutyl acetate, 323.15 K
Observed property: solubility (mole fraction)

Specify solubility (mole fraction) for CCCSc1ccc2nc(NC(=O)OC)[nH]c2c1 and stop.
0.00119

---

# Measurement conditions: in acetone, 313.15 K
Observed property: solubility (mole fraction)
The answer should be written as a number, with no unit following it.

// fetch solubility (mole fraction) given entry CCCSc1ccc2nc(NC(=O)OC)[nH]c2c1
0.00442

---

# Measurement conditions: in isopropanol, 308.15 K
Observed property: solubility (mole fraction)
# print the numeric value only

Name the recorded solubility (mole fraction) of the item CCCSc1ccc2nc(NC(=O)OC)[nH]c2c1 in your answer.
0.000328

---

# Measurement conditions: in n-propyl acetate, 318.15 K
Observed property: solubility (mole fraction)

Please give measured solubility (mole fraction) of the following entry: CCCSc1ccc2nc(NC(=O)OC)[nH]c2c1
0.00117

---

# Measurement conditions: in n-propanol, 318.15 K
Observed property: solubility (mole fraction)
Give a plain numeric answer without units written out.

Answer with reported solubility (mole fraction) of CCCSc1ccc2nc(NC(=O)OC)[nH]c2c1
0.000569

---

# Measurement conditions: in ethanol, 313.15 K
Observed property: solubility (mole fraction)
Output: the number by itself.

Given CCCSc1ccc2nc(NC(=O)OC)[nH]c2c1 , respond with its solubility (mole fraction).
0.000297

---

# Measurement conditions: in n-butanol, 278.15 K
Observed property: solubility (mole fraction)
Simply state the number, no unit and no words.

Report solubility (mole fraction) for CCCSc1ccc2nc(NC(=O)OC)[nH]c2c1
0.00021

---

# Measurement conditions: in ethanol, 278.15 K
Observed property: solubility (mole fraction)
Just the number.

Hello, please tell me recorded solubility (mole fraction) for this one: CCCSc1ccc2nc(NC(=O)OC)[nH]c2c1
5.59e-05

---

# Measurement conditions: in methanol, 318.15 K
Observed property: solubility (mole fraction)
// return just the number, without any unit appended

# return recorded solubility (mole fraction) for input CCCSc1ccc2nc(NC(=O)OC)[nH]c2c1
0.000363

---

# Measurement conditions: in acetone, 283.15 K
Observed property: solubility (mole fraction)
No unit in the answer, please; the number alone is enough.

Answer with the recorded solubility (mole fraction) of CCCSc1ccc2nc(NC(=O)OC)[nH]c2c1 only.
0.00173

---

# Measurement conditions: in n-butyl acetate, 298.15 K
Observed property: solubility (mole fraction)

Give me measured solubility (mole fraction), please, for this molecule: CCCSc1ccc2nc(NC(=O)OC)[nH]c2c1
0.000873

---

# Measurement conditions: in acetone, 278.15 K
Observed property: solubility (mole fraction)
Give the figure only, with no unit attached.

Determine from records and report solubility (mole fraction) for CCCSc1ccc2nc(NC(=O)OC)[nH]c2c1
0.00148

---

# Measurement conditions: in isobutyl acetate, 308.15 K
Observed property: solubility (mole fraction)
Give only the figure.

Please give measured solubility (mole fraction) of the following entry: CCCSc1ccc2nc(NC(=O)OC)[nH]c2c1
0.000873

---

# Measurement conditions: in isopropanol, 293.15 K
Observed property: solubility (mole fraction)
Simply state the number, no unit and no words.

Output solubility (mole fraction) of CCCSc1ccc2nc(NC(=O)OC)[nH]c2c1
0.000187

---

# Measurement conditions: in isopropanol, 278.15 K
Observed property: solubility (mole fraction)
Give only the figure.

Supply measured solubility (mole fraction) of CCCSc1ccc2nc(NC(=O)OC)[nH]c2c1 in your reply.
9.89e-05

---

# Measurement conditions: in isopropanol, 303.15 K
Observed property: solubility (mole fraction)
Please give only the number in your answer, with no unit.

Give the value of solubility (mole fraction) reported for the following: CCCSc1ccc2nc(NC(=O)OC)[nH]c2c1
0.000272

---

# Measurement conditions: in methanol, 298.15 K
Observed property: solubility (mole fraction)
Answer as a number with no unit attached.

Kindly indicate its recorded solubility (mole fraction). Item: CCCSc1ccc2nc(NC(=O)OC)[nH]c2c1
0.000174

---

# Measurement conditions: in methanol, 313.15 K
Observed property: solubility (mole fraction)

Find the measured solubility (mole fraction) of CCCSc1ccc2nc(NC(=O)OC)[nH]c2c1 and report it.
0.000298

---

# Measurement conditions: in n-butyl acetate, 308.15 K
Observed property: solubility (mole fraction)
// return a plain number; no unit text

For the compound CCCSc1ccc2nc(NC(=O)OC)[nH]c2c1 , report solubility (mole fraction).
0.0011

---

# Measurement conditions: in n-propanol, 313.15 K
Observed property: solubility (mole fraction)
No unit in the answer, please; the number alone is enough.

Item CCCSc1ccc2nc(NC(=O)OC)[nH]c2c1 : provide solubility (mole fraction)
0.000488

---

# Measurement conditions: in n-propanol, 278.15 K
Observed property: solubility (mole fraction)

Complete the entry with solubility (mole fraction) for CCCSc1ccc2nc(NC(=O)OC)[nH]c2c1
0.00017

---

# Measurement conditions: in n-propyl acetate, 313.15 K
Observed property: solubility (mole fraction)
Enter a number only.

Supply recorded solubility (mole fraction) for CCCSc1ccc2nc(NC(=O)OC)[nH]c2c1 here.
0.00106

---

# Measurement conditions: in isobutyl acetate, 283.15 K
Observed property: solubility (mole fraction)
Write the number on its own, no unit after it.

Give recorded solubility (mole fraction). CCCSc1ccc2nc(NC(=O)OC)[nH]c2c1
0.000542

---

# Measurement conditions: in ethanol, 318.15 K
Observed property: solubility (mole fraction)

In one line, give reported solubility (mole fraction) of the entry CCCSc1ccc2nc(NC(=O)OC)[nH]c2c1 .
0.000364

---

# Measurement conditions: in ethanol, 283.15 K
Observed property: solubility (mole fraction)
Number only, no unit.

Supply solubility (mole fraction) value. Item: CCCSc1ccc2nc(NC(=O)OC)[nH]c2c1
7.25e-05

---

# Measurement conditions: in isopropanol, 313.15 K
Observed property: solubility (mole fraction)
Answer using only a numeral; do not append any unit.

Provide measured solubility (mole fraction) value, entry: CCCSc1ccc2nc(NC(=O)OC)[nH]c2c1
0.000394

---

# Measurement conditions: in n-butyl acetate, 313.15 K
Observed property: solubility (mole fraction)
Simply state the number, no unit and no words.

Write down solubility (mole fraction) measured for item CCCSc1ccc2nc(NC(=O)OC)[nH]c2c1
0.0012

---

# Measurement conditions: in ethanol, 308.15 K
Observed property: solubility (mole fraction)

Determine from records and report solubility (mole fraction) for CCCSc1ccc2nc(NC(=O)OC)[nH]c2c1
0.000234

---

# Measurement conditions: in n-butanol, 293.15 K
Observed property: solubility (mole fraction)
# output: bare number, no unit

Annotate the compound CCCSc1ccc2nc(NC(=O)OC)[nH]c2c1 with its measured solubility (mole fraction).
0.000343
